molecular target: 5-hydroxytryptamine receptor 1A (Homo sapiens); assay: Antagonistic efficacy as adenylyl cyclase assay in CHO cells expressing human 5-HT1A receptor (experiment 2); assay type: functional, cell-based
Sequence (P08908 whole entry): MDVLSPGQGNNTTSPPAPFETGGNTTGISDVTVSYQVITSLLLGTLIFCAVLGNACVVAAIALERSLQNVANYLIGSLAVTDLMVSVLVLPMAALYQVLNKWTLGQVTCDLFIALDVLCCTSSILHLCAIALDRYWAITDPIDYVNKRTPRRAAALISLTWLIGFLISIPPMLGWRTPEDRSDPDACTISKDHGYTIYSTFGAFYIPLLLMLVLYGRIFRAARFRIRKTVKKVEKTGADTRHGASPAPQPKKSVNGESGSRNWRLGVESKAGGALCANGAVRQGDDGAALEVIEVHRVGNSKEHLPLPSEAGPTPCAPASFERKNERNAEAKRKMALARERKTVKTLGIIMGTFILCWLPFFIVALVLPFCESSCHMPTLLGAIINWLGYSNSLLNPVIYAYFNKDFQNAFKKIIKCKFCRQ
MEASURE: Efficacy (%)
Please give a number only; it is taken to be in %.

// query Fill in: Efficacy of O=C(NCCN1CCN(c2cccc3c2OCCO3)CC1)c1ccc(F)cc1 is ___
// result 0

// query Fill in: Efficacy of O=C1c2ccccc2C(=O)N1CCN1CCN(c2cccc3c2OCCO3)CC1 is ___
// result 2

// query Fill in: Efficacy of O=C(NCCCCN1CCN(c2cccc3c2OCCO3)CC1)c1ccc(F)cc1 is ___
// result 0

// query Fill in: Efficacy of O=C1c2ccccc2S(=O)(=O)N1CCCCN1CCN(c2cccc3c2OCCO3)CC1 is ___
// result 65

// query Fill in: Efficacy of O=C1c2ccccc2S(=O)(=O)N1CCN1CCN(c2cccc3c2OCCO3)CC1 is ___
// result 0

* * *

biological target: 5-hydroxytryptamine receptor 1A (Homo sapiens) (UniProt P08908); test: Agonistic efficacy as adenylyl cyclase assay in CHO cells expressing human 5-HT1A receptor (experiment 1); format: functional, cell-based
Sequence (P08908 whole entry): as above
MEASURE: Efficacy (%)
Please give a number only; it is taken to be in %.

// query Write down the reported Efficacy of O=C(NCCCCN1CCN(c2cccc3c2OCCO3)CC1)c1ccc(F)cc1 , test system: 5-hydroxytryptamine receptor 1A (Homo sapiens) (UniProt P08908).
// result 81

// query Write down the reported Efficacy of O=C(CCCN1CCN(c2cccc3c2OCCO3)CC1)c1ccccc1 , test system: 5-hydroxytryptamine receptor 1A (Homo sapiens) (UniProt P08908).
// result 71

// query Write down the reported Efficacy of c1ccc(CCCCN2CCN(c3cccc4c3OCCO4)CC2)cc1 , test system: 5-hydroxytryptamine receptor 1A (Homo sapiens) (UniProt P08908).
// result 45

// query Write down the reported Efficacy of O=C1c2ccccc2C(=O)N1CCCCN1CCN(c2cccc3c2OCCO3)CC1 , test system: 5-hydroxytryptamine receptor 1A (Homo sapiens) (UniProt P08908).
// result 44

// query Write down the reported Efficacy of O=C(CCCN1CCN(c2cccc3c2OCCO3)CC1)c1ccc(F)cc1 , test system: 5-hydroxytryptamine receptor 1A (Homo sapiens) (UniProt P08908).
// result 50

* * *

target: 5-hydroxytryptamine receptor 1A (Homo sapiens); experiment: Antagonistic efficacy as adenylyl cyclase assay in CHO cells expressing human 5-HT1A receptor (experiment 2); format: functional, cell-based
MEASURE: Efficacy (%)
Please give a number only; it is taken to be in %.

// query Fill in: Efficacy of O=C(CCCN1CCN(c2cccc3c2OCCO3)CC1)c1ccc(F)cc1 is ___
// result 42

// query Fill in: Efficacy of O=C1c2ccccc2C(=O)N1CCCCN1CCN(c2cccc3c2OCCO3)CC1 is ___
// result 62

// query Fill in: Efficacy of c1ccc(CCCCN2CCN(c3cccc4c3OCCO4)CC2)cc1 is ___
// result 70

// query Fill in: Efficacy of O=C1c2ccccc2S(=O)(=O)N1CCCCN1CCN(c2cc(Cl)cc3c2OCCO3)CC1 [DU 125530] is ___
// result 100

* * *

target: UniProt:P08908; test: Potency against human 5-hydroxytryptamine 1A receptor expressed in CHO cells (experiment 1); format: functional, cell-based
MEASURE: EC50 (nM)
Please give a number only; it is taken to be in nM.

// query Fill in: EC50 of O=C(CCCN1CCN(c2cccc3c2OCCO3)CC1)c1ccc(F)cc1 is ___
// result 5.25

// query Fill in: EC50 of O=C1c2ccccc2C(=O)N1CCCCN1CCN(c2cccc3c2OCCO3)CC1 is ___
// result 1.35

// query Fill in: EC50 of O=C(CCCN1CCN(c2cccc3c2OCCO3)CC1)c1ccccc1 is ___
// result 2.88

// query Fill in: EC50 of O=C1c2ccccc2S(=O)(=O)N1CCN1CCN(c2cccc3c2OCCO3)CC1 is ___
// result 251

// query Fill in: EC50 of O=C(NCCN1CCN(c2cccc3c2OCCO3)CC1)c1ccc(F)cc1 is ___
// result 0.955

// query Fill in: EC50 of O=C(NCCCCN1CCN(c2cccc3c2OCCO3)CC1)c1ccc(F)cc1 is ___
// result 12.6

// query Fill in: EC50 of c1ccc(CCCCN2CCN(c3cccc4c3OCCO4)CC2)cc1 is ___
// result 6.76
